target-desc: IMPDH human type II (Homo sapiens, UniProt P12268)
assay-protocol: IMPDH activity inhibition assay (spectrophotometric, NADH formation at 340 nm)
Type: biochemical
applied-conditions: IMPDH human type II, 15 to 50 nM enzyme, 37° C., tight-binding fit (Henderson); read-out: Ki
# Ki per entry

Recorded Ki, per entry:
INSERT INTO results (molecule, target_desc, quantity_kind, val) VALUES
  ('COc1cc(NC(=O)Nc2cccc(NC(=O)C(=O)c3cc(OC)c(OC)c(OC)c3)c2)ccc1-c1cnco1', 'IMPDH human type II (Homo sapiens, UniProt P12268)', 'Ki', '51 to 1000 nM'),
  ('O=C(Nc1ccc(-c2cnco2)cc1)Nc1cccc(O)c1', 'IMPDH human type II (Homo sapiens, UniProt P12268)', 'Ki', '1000 to 10000 nM'),
  ('COc1cc(NC(=O)Nc2cccc(CNC(=O)OC3COCOC3)c2)ccc1-c1cnco1', 'IMPDH human type II (Homo sapiens, UniProt P12268)', 'Ki', '0.01 to 50 nM');

I would be grateful if you could share the reported Ki for "COC(=O)c1cc(NC(=O)Nc2cccc([N+](=O)[O-])c2)ccc1-c1cnco1" .
1000 to 10000 nM

Which Ki is reported for this molecule? "COc1cc(NC(=O)Nc2cccc(NC(=O)Nc3ccccc3)c2)ccc1-c1cnco1"
51 to 1000 nM

---

target-desc: IMPDH human type II (Homo sapiens)
assay-protocol: IMPDH activity inhibition assay (spectrophotometric, NADH formation at 340 nm)
Assay type: biochemical
applied-conditions: IMPDH human type II, 15 to 50 nM enzyme, 37° C., tight-binding fit (Henderson); read-out: Ki
Ki: recorded values

INSERT INTO measurements (compound, val) VALUES
  ('COc1ccc(OC)c(NC(=O)Nc2ccc(-c3cnco3)cc2)c1 [Compound 14]', '1000 to 10000 nM'),
  ('COc1cc(NC(=O)Nc2cccc(CNC(=O)OC3CCCN(C(=O)OC(C)(C)C)C3)c2)ccc1-c1cnco1 (stereo not drawn) [Compound 143]', '51 to 1000 nM'),
  ('COc1cc(NC(=O)Nc2ccc3c(c2)N(C(C)=O)CC3)ccc1-c1cnco1 [Compound 106]', '51 to 1000 nM');

Now for another entry.
Would you kindly share the measured Ki for COC(=O)Cc1cccc(NC(=O)Nc2ccc(-c3cnco3)cc2)c1 [Compound 47] ?
51 to 1000 nM

---

target-desc: IMPDH human type II (Homo sapiens)
assay-protocol: IMPDH activity inhibition assay (spectrophotometric, NADH formation at 340 nm)
Format: biochemical
applied-conditions: IMPDH human type II, 15 to 50 nM enzyme, 37° C., tight-binding fit (Henderson); read-out: Ki
quantity-kind: Ki

Before answering, review these 10 worked examples.
INSERT INTO measurements (compound, val) VALUES
  ('COc1cc(NC(=O)Nc2cccc(CNC(=O)OCc3ccco3)c2)ccc1-c1cnco1', '0.01 to 50 nM'),
  ('Cc1cccc(NC(=O)Nc2ccc(-c3ocnc3C)cc2)c1', '51 to 1000 nM'),
  ('COc1cc(NC(=O)Nc2cccc(NC(=O)CC3CCCC3)c2)ccc1-c1cnco1', '51 to 1000 nM'),
  ('COc1cc(NC(=O)Nc2cccc(N)c2)ccc1-c1cnco1', '0.01 to 50 nM'),
  ('COc1cc(NC(=O)Nc2cccc(NC(=O)c3ccccc3)c2)ccc1-c1cnco1', '51 to 1000 nM'),
  ('COc1cc(NC(=O)Nc2cccc(CNC(=O)OC3CCCC3)c2)ccc1-c1cnco1', '0.01 to 50 nM'),
  ('Cc1cc(NC(=O)Nc2ccc(-c3cnco3)c(Cl)c2)ccn1', '1000 to 10000 nM'),
  ('COc1cc(NC(=O)Nc2cccc(CNC(=O)OCCCSC)c2)ccc1-c1cnco1', '0.01 to 50 nM'),
  ('COc1cc(NC(=O)Nc2cccc(NC(=O)Oc3ccccc3)c2)ccc1-c1cnco1', '0.01 to 50 nM'),
  ('Cc1cnc(NC(=O)Nc2ccc(-c3cnco3)cc2)s1', '> 10000 nM');

Field request: Ki | item: "Cc1cc(N)cc(NC(=O)Nc2ccc(-c3cnco3)cc2)c1"
1000 to 10000 nM

So what does the record say about Ki for "O=C(Nc1ccc(-c2cnco2)cc1)Nc1ccc([N+](=O)[O-])cc1" ?
1000 to 10000 nM

Recorded Ki for "Cc1ncc(-c2cccc(NC(=O)Nc3ccc(-c4cnco4)cc3)c2)cn1" , please?
1000 to 10000 nM

---

Items are presented alongside their recorded pKi.
target-desc: IMPDH human type II (Homo sapiens)
assay-protocol: IMPDH activity inhibition assay (spectrophotometric, NADH formation at 340 nm)
Type: biochemical
applied-conditions: IMPDH human type II, 15 to 50 nM enzyme, 37° C., tight-binding fit (Henderson); read-out: Ki
pKi: −log10 of the molar value.

Please review the entries below; each comes with its answer.
INSERT INTO measurements (smiles_input, target_desc, val) VALUES
  ('COc1cc(NC(=O)Nc2cccc(CNC(=O)OCCCCCO)c2)ccc1-c1cnco1', 'IMPDH human type II (Homo sapiens)', '7.30 to 11.00'),
  ('COc1cc(NC(=O)Nc2cccc(N(C)C(C)=O)c2)ccc1C#N', 'IMPDH human type II (Homo sapiens)', '6.00 to 7.29'),
  ('O=C(Nc1ccc(Oc2ccccc2)cc1)Nc1ccc(-c2cnco2)cc1', 'IMPDH human type II (Homo sapiens)', '5.00 to 6.00'),
  ('CC(=O)N(C)c1cccc(NC(=O)Nc2ccc(C#N)c(Cl)c2)c1', 'IMPDH human type II (Homo sapiens)', '6.00 to 7.29'),
  ('COc1cc(NC(=O)Nc2cccc(NC(=O)OCc3cccnc3)c2)ccc1-c1cnco1', 'IMPDH human type II (Homo sapiens)', '6.00 to 7.29');

What value of measured pKi is listed for "Cc1cccc(NC(=O)Nc2ccc(-c3cnco3)c(CO)c2)c1" ?
5.00 to 6.00

Please give the measured pKi for this compound: "Nc1cccc(NC(=O)Nc2ccc(-c3cnco3)c(Br)c2)c1"
6.00 to 7.29

Param item = "O=C(Nc1ccc(-c2cnco2)cc1)Nc1cccc(F)c1" ; retrieve measured pKi.
5.00 to 6.00

---

target-desc: IMPDH human type II (Homo sapiens, UniProt P12268)
assay-protocol: IMPDH activity inhibition assay (spectrophotometric, NADH formation at 340 nm)
Format: biochemical
applied-conditions: IMPDH human type II, 15 to 50 nM enzyme, 37° C., tight-binding fit (Henderson); read-out: Ki
pKi: −log10 of the molar value.
Each item that follows carries a reported pKi.

// below: answered compounds
INSERT INTO measurements (smiles_input, target_desc, val) VALUES
  ('COc1cc(NC(=O)Nc2cccc(CNC(=O)OCc3ccccn3)c2)ccc1-c1cnco1', 'IMPDH human type II (Homo sapiens, UniProt P12268)', '7.30 to 11.00'),
  ('Cc1cccc(NC(=O)Nc2ccc(-c3cnco3)cc2)c1', 'IMPDH human type II (Homo sapiens, UniProt P12268)', '6.00 to 7.29'),
  ('O=C(Nc1cccc([N+](=O)[O-])c1)Nc1ccc(-c2cnco2)c(Br)c1', 'IMPDH human type II (Homo sapiens, UniProt P12268)', '6.00 to 7.29'),
  ('COc1ccc(NC(=O)Nc2cccc(SC)c2)cc1OC', 'IMPDH human type II (Homo sapiens, UniProt P12268)', '< 5.00');

Reported pKi for "CC(=O)N(C)c1cccc(NC(=O)Nc2ccc(C#N)c(S(C)(=O)=O)c2)c1" : what is it?
< 5.00

If you can, please state the reported pKi value of "CNS(=O)(=O)c1cccc(NC(=O)Nc2ccc(-c3cnco3)cc2)c1" .
5.00 to 6.00

---

target-desc: IMPDH human type II (Homo sapiens)
assay-protocol: IMPDH activity inhibition assay (spectrophotometric, NADH formation at 340 nm)
Type: biochemical
applied-conditions: IMPDH human type II, 15 to 50 nM enzyme, 37° C., tight-binding fit (Henderson); read-out: Ki
# key: entry, value: Ki

As a guide, the following entries are already answered.
INSERT INTO measurements (compound, quantity_kind, val) VALUES
  ('COc1cc(NC(=O)Nc2cccc(CNC(=O)OCCCS(C)(=O)=O)c2)ccc1-c1cnco1 [Compound 157]', 'Ki', '51 to 1000 nM'),
  ('CC(=O)Nc1cccc(NC(=O)Nc2ccc(-c3cnco3)c(Cl)c2)c1 [Compound 72]', 'Ki', '1000 to 10000 nM'),
  ('COc1ccc(Cl)cc1NC(=O)Nc1ccc(OC)c(OC)c1 [Compound 35]', 'Ki', '1000 to 10000 nM'),
  ('COc1cc(NC(=O)Nc2cccc(CNC(=O)OCC3CCNCC3)c2)ccc1-c1cnco1 [Compound 155]', 'Ki', '0.01 to 50 nM'),
  ('COc1ccc(NC(=O)Nc2cccc(F)c2)cc1OC [Compound 36]', 'Ki', '1000 to 10000 nM');

Here's the next entry for you.
Value lookup for Ki; key = Cc1cccc(NC(=O)Nc2ccc(C#N)c(Cl)c2)c1 [Compound 70]
1000 to 10000 nM
